Measured values drawn from ChEMBL document CHEMBL1137285 for this set.

As an illustration, consider measured log10 Ki for molecules on Cannabinoid receptor 1 (Rattus norvegicus).
Sequence (P20272 whole entry): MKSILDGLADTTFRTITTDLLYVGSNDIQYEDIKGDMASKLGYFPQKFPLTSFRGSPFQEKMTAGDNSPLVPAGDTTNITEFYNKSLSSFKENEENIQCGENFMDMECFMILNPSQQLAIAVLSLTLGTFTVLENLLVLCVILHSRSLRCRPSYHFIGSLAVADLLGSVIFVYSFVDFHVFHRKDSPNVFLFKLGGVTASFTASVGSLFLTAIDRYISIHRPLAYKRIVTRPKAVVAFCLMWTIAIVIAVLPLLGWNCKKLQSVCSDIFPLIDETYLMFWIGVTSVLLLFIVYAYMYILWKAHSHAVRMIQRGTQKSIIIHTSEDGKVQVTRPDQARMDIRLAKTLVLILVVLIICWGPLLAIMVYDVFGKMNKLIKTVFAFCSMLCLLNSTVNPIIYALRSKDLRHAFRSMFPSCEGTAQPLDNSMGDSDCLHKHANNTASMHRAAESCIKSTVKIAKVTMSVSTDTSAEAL
measured quantity: log10 Ki (log10 of the value in µM)

>>> result("CCCCCn1cc(C(=O)c2cccc3ccccc23)cc1-c1ccc(C(F)(F)F)cc1")
-0.66
>>> result("CCCCCn1cc(C(=O)c2cccc3ccccc23)cc1-c1ccc(F)cc1")
-1.39
>>> result("CCCCCn1cc(C(=O)c2cccc3ccccc23)cc1-c1ccccc1OC")
-1.54
>>> result("CCCCCn1cc(C(=O)c2cccc3ccccc23)cc1-c1ccccc1CCCC")
-1.22
>>> result("CCCCCn1cc(C(=O)c2cccc3ccccc23)cc1-c1cccc([N+](=O)[O-])c1")
-1.00
>>> result("CCCCCn1cc(C(=O)c2cccc3ccccc23)cc1-c1ccc(C)cc1")
-0.89
>>> result("CCCCCn1cc(C(=O)c2cccc3ccccc23)cc1-c1ccccc1")
-1.85
>>> result("CCCCCn1cc(C(=O)c2cccc3ccccc23)cc1-c1ccc2ccccc2c1")
-0.48
>>> result("CCCCn1cc(C(=O)c2cccc3ccccc23)cc1-c1ccccc1")
-1.22
>>> result("CCCCCCn1cc(C(=O)c2cccc3ccccc23)cc1-c1ccccc1")
-1.96
>>> result("CCCCCn1cc(C(=O)c2cccc3ccccc23)cc1-c1cccc(C(F)(F)F)c1")
-0.61
>>> result("CCCCCn1cc(C(=O)c2cccc3ccccc23)cc1-c1ccccc1Cl")
-2.10
>>> result("CCCCCn1cc(C(=O)c2cccc3ccccc23)cc1-c1ccccc1C(F)(F)F")
-1.11
>>> result("CCCCCn1cc(C(=O)c2cccc3ccccc23)cc1-c1ccccc1F")
-2.11
>>> result("CCCCCn1cc(C(=O)c2cccc3ccccc23)cc1-c1ccc(CC)cc1")
-1.47
>>> result("CCCCCn1cc(C(=O)c2cccc3ccccc23)cc1-c1ccc(CCCC)cc1")
-1.38
>>> result("CCCCCn1cc(C(=O)c2cccc3ccccc23)cc1-c1ccc(Cl)cc1")
-0.56
>>> result("CCCCCn1cc(C(=O)c2cccc3ccccc23)cc1-c1cccnc1")
-0.72
>>> result("CCCCCn1cc(C(=O)c2cccc3ccccc23)cc1-c1cccc(Cl)c1")
-1.15
>>> result("CCCCCCCn1cc(C(=O)c2cccc3ccccc23)cc1-c1ccccc1")
-1.68
>>> result("CCCCCn1cc(C(=O)c2cccc3ccccc23)cc1-c1ccccc1CC")
-1.77
>>> result("CCCCCn1cc(C(=O)c2cccc3ccccc23)cc1-c1cccc2ccccc12")
-1.39
>>> result("CCCCCn1cc(C(=O)c2cccc3ccccc23)cc1-c1ccc(OC)cc1")
-0.55
>>> result("CCCCCn1cc(C(=O)c2cccc3ccccc23)cc1-c1cccc(OC)c1")
-1.28
>>> result("CCCCCn1cc(C(=O)c2cccc3ccccc23)cc1-c1ccccc1C")
-2.25
>>> result("CCCn1cc(C(=O)c2cccc3ccccc23)cc1-c1ccccc1")
-0.39
>>> result("CCCCCn1cc(C(=O)c2cccc3ccccc23)cc1-c1cccc(C)c1")
-1.17
>>> result("CCCCCn1cc(C(=O)c2cccc3ccccc23)cc1-c1cccc(F)c1")
-1.80
